Values from ChEMBL document CHEMBL5247578

# Tested on: NCI/ADR-RES
# Assay Procedure: Antiproliferative activity against human NCI/ADR-RES cells assessed as cell growth inhibition at 10 uM incubated for 48 hrs by sulforhodamine B assay relative to control
# Format: functional
Recorded Endpoint: inhibition at 10 µM (%)
The response must be a number in % with no trailing unit.

Sample Smiles | inhibition at 10 µM, %
Fc1ccc(-c2cn3ccnc3c(-c3ccc4ncn(C5CCCCC5)c4c3)n2)cc1 | 0.69

Moving on to another molecule below.
Asked: Hello, please tell me recorded inhibition at 10 µM for this one: Brc1cn2ccnc2c(-c2ccc3ncn(C4CCCCC4)c3c2)n1
Given back: 8.82

###

# Test system: 786-0
# Assay Procedure: Antiproliferative activity against human 786-0 cells assessed as cell growth inhibition at 10 uM incubated for 48 hrs by sulforhodamine B assay relative to control
# Type: functional
Record Condition met whenever inhibition at 10 µM is at 20% or higher; record Condition not met when lower.

Below are worked cases with known answers.
Sample Smiles | Label Class
O=Cc1ccc(-c2cn3ccnc3c(-c3ccc4ncn(C5CCCCC5)c4c3)n2)cc1 | Condition met
COc1ccccc1-c1cn2ccnc2c(-c2ccc3ncn(C4CCCCC4)c3c2)n1 | Condition not met
Brc1ccc(-c2cn3ccnc3c(-c3ccc4ncn(C5CCCCC5)c4c3)n2)cc1 | Condition not met

Asked: Textbook exercise: given the entry Clc1ccc(-c2cn3ccnc3c(-c3ccc4ncn(C5CCCCC5)c4c3)n2)cc1 , state whether its inhibition at 10 µM is greater than or equal to 20%.
Given back: Condition not met

Asked: Form field: inhibition at 10 µM at least 20%? Entry: c1cn2cc(-c3ccc4c(c3)ncn4C3CCCCC3)nc(-c3ccc4ncn(C5CCCCC5)c4c3)c2n1
Given back: Condition met

Asked: Entry Cc1cccc(-c2cn3ccnc3c(-c3ccc4ncn(Cc5ccccc5)c4c3)n2)c1 : is its inhibition at 10 µM no less than 20%?
Given back: Condition met

Asked: For this compound, is measured inhibition at 10 µM 20% or higher? c1cn2cc(-c3ccc4ncn(C5CCCCC5)c4c3)nc(-c3ccc4ncn(C5CCCCC5)c4c3)c2n1
Given back: Condition met

Asked: Given c1ccc(Cn2cnc3ccc(-c4nc(-c5cccc6ccccc56)cn5ccnc45)cc32)cc1 , state whether its inhibition at 10 µM is at least 20%.
Given back: Condition not met

Asked: State whether the measured inhibition at 10 µM reaches 20%, counting equality as reaching it, for Fc1ccccc1-c1cn2ccnc2c(-c2ccc3ncn(C4CCCCC4)c3c2)n1
Given back: Condition not met
